molecular target: recombinant human 11beta-HSD1 (Homo sapiens, UniProt P28845); experiment: 11β-HSD-1 SPA Enzyme Assay (Scintillation Proximity assay, microsomes of transfected HEK 293 EBNA cells)
Sequence (P28845 whole entry): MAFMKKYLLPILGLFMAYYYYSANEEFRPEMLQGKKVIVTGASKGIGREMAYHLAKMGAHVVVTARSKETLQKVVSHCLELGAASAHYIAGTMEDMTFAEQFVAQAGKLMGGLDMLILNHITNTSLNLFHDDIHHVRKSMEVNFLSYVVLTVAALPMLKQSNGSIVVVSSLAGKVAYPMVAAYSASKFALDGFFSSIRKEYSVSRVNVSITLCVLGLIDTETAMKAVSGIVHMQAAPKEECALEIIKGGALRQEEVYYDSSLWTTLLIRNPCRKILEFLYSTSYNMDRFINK
# note: boundary value 3 nM maps to False; IC50 below it maps to True

{"columns": ["compound", "cat"],
 "data": [
  ["N#Cc1ccc(OC2CN(C(=O)CC3(c4ccc(F)cc4)C4CC5CC(C4)CC3C5)C2)nc1 (centres unmarked)", "True"],
  ["CC(C)(O)CNC(=O)OC1CN(C(=O)CC2(c3ccccc3)C3CC4CC2CC(C3)C4O)C1 (centres unmarked)", "False"],
  ["O=C(CC1(c2ccc(F)cc2)C2CC3CC(C2)CC1C3)N1CC(Oc2ccccc2)C1 (centres unmarked)", "True"],
  ["Cc1noc(C)c1CC1(C(=O)O)C2CC3CC(C2)CC1C3 (centres unmarked)", "False"],
  ["O=C(NC1CCN(C(=O)CC2(c3ccc(F)cc3)C3CC4CC(C3)CC2C4)C1)OCc1ccccc1 (centres unmarked)", "False"],
  ["O=C(C[C@]1(Cc2ccccc2Cl)C2CC3CC1C[C@](O)(C3)C2)N1CC(O)C1", "False"],
  ["CC1(CC(=O)N2CC(NC(=O)OCc3ccccc3)C2)C2CC3CC1CC(C2)C3O (centres unmarked)", "False"],
  ["O=C(O)C1(Cc2cccc(F)c2)C2CC3CC(C2)CC1C3 (centres unmarked)", "False"],
  ["CC(C)c1ccc(C2(CC(=O)N3CC(O)C3)C3CC4CC2CC(C3)C4O)cc1 (centres unmarked)", "True"],
  ["O=C(CC1(c2ccc(F)cc2)C2CC3CC(C2)CC1C3)N1CC[C@H](O)C1 (single isomer, unassigned)", "True"],
  ["C=CCO[C@]12CC3CC(C1)[C@](CC(=O)N1CC(O)C1)(c1ccc(F)cc1)C(C3)C2", "True"]
]}

====

biological target: recombinant human 11beta-HSD1 (Homo sapiens, UniProt P28845); test: 11β-HSD-1 SPA Enzyme Assay (Scintillation Proximity assay, microsomes of transfected HEK 293 EBNA cells)
pIC50: −log10 of the molar value.
Each entry below lists one item and its recorded pIC50 value.

{"columns": ["compound", "pIC50"],
 "data": [
  ["COC(=O)C1CN1C(=O)CC1(c2ccc(F)cc2)C2CC3CC(C2)CC1C3 (centres unmarked)", 7.09],
  ["CS(=O)(=O)NC(=O)CC1(c2ccc(F)cc2)C2CC3CC(C2)CC1C3 (centres unmarked)", 6.80],
  ["CNC(=O)OC1CN(C(=O)CC2(c3ccccc3)C3CC4CC2CC(C3)C4O)C1 (single isomer, unassigned)", 8.06],
  ["O=C(CC1(c2ccccc2)C2CC3CC1CC(C2)C3O)N1CC(c2nnc3ccccn23)C1 (centres unmarked)", 6.20],
  ["CNC(=O)OC1CN(C(=O)C[C@]2(c3ccc(F)cc3)C3CC4CC2C[C@](C(N)=O)(C4)C3)C1", 7.68],
  ["COC(=O)NC1CN(C(=O)C[C@]2(c3ccc(F)cc3)C3CC4CC2C[C@](C(N)=O)(C4)C3)C1", 6.50],
  ["O=C(O)COC1CN(C(=O)CC2(c3ccc(F)cc3)C3CC4CC(C3)CC2C4)C1 (centres unmarked)", 7.05],
  ["O=C(O)COC1(c2ccc(F)cc2)C2CC3CC(C2)CC1C3 (centres unmarked)", 6.20],
  ["O=C(O)CC1(Cc2ccccc2)C2CCCC1CCC2 (centres unmarked)", 7.01],
  ["O=C(C[C@]1(Cc2ccccc2)C2CC3CC1C[C@@](O)(C3)C2)N1CC(O)C1", 6.60],
  ["O=C(O)C1CN(C(=O)C2CN(C(=O)CC3(Cc4ccccc4)C4CC5CC(C4)CC3C5)C2)C1 (centres unmarked)", 6.34],
  ["O=C(N1CC(O)C1)C1(Cc2ccccc2Cl)C2CC3CC(C2)CC1C3 (centres unmarked)", 7.82],
  ["O=C(CC1(c2ccccc2)C2CC3CC1CC(C2)C3O)N1CCC[C@@H](O)C1 (single isomer, unassigned)", 6.76],
  ["O=C(O)C1(Cc2coc(-c3ccc(F)cc3)n2)C2CC3CC(C2)CC1C3 (centres unmarked)", 5.53],
  ["COC(=O)NC1CN(C(=O)CC2(c3ccc(F)cc3)C3CC4CC2CC(C3)O4)C1 (centres unmarked)", 6.28],
  ["O=C(CC1(c2ccccc2)C2CC3CC1CC(C2)C3O)N1CCC[C@H](O)C1 (single isomer, unassigned)", 6.59],
  ["C=C1CC2CCC(C1)C2(CC(=O)O)c1ccc(F)cc1 (centres unmarked)", 7.52],
  ["CNC(=O)OC1CN(C(=O)C2(Cc3ccc(Cl)cc3)C3CC4CC(C3)CC2C4)C1 (centres unmarked)", 7.17],
  ["O=C(CC1(c2ccc(F)cc2)C2CC3CC(C2)CC1C3)N1CCC(OCc2ccccc2)C1 (centres unmarked)", 8.33],
  ["CNC(=O)OC1CN(C(=O)CC2(c3ccc(F)cc3)C3CC4CC2CC(C3)O4)C1 (centres unmarked)", 6.56],
  ["CS(=O)(=O)NC(=O)C1CN(C(=O)CC2(c3ccccc3)C3CC4CC2CC(C3)C4O)C1 (centres unmarked)", 5.76],
  ["O=C(C[C@]1(c2ccc(F)cc2)C2CC3CC1C[C@@](C(=O)O)(C3)C2)N1CC(O)C1", 6.89],
  ["CCN(CC)C(=O)CC1(c2ccc(F)cc2)C2CC3CC1CC(F)(C3)C2 (centres unmarked)", 6.42],
  ["O=C(CC1(c2ccccc2)C2CC3CC1CC(C2)C3O)N1CCSC1 (centres unmarked)", 8.52],
  ["CNC(=O)NC1CN(C(=O)CC2(c3ccccc3)C3CC4CC2CC(C3)C4O)C1 (centres unmarked)", 6.90],
  ["O=C(CC1(c2ccccc2)C2CC3CC1CC(C2)C3O)N1CC(CO)C1 (single isomer, unassigned)", 8.21],
  ["CC(C(=O)N1CC(O)C1)C1(c2ccc(F)cc2)C2CC3CC(C2)CC1C3 (centres unmarked)", 6.92],
  ["O=C(CC1(c2ccccc2)C2CC3CC1CC(C2)C3O)N1C[C@H](O)CO1 (single isomer, unassigned)", 7.80],
  ["O=C(O)C1(CCc2ccccc2)C2CC3CC(C2)CC1C3 (centres unmarked)", 5.94],
  ["O=C(O)C(C(=O)N1CC(O)C1)C1(c2ccc(F)cc2)C2CC3CC(C2)CC1C3 (centres unmarked)", 5.04],
  ["CN(CCO)C(=O)CC1(c2ccc(F)cc2)C2CC3CC(C2)CC1C3 (centres unmarked)", 7.60],
  ["O=C(NCc1nnn[nH]1)OC1CN(C(=O)CC2(c3ccccc3)C3CC4CC2CC(C3)C4O)C1 (single isomer, unassigned)", 7.12]
]}
